Data origin: patent US12024506B2

targetUnderTest: GST-human KRas166 (G12V) GPPNHP (Homo sapiens, UniProt P01116, G12V)
Construct: made in house; host or cells: E. coli C41(DE3)
testMethodNotes: KRas small-molecule screening by SPR (Biacore T200)
Type: binding
condition: compound 100 uM, 5% DMSO buffer; immobilised GST-KRas166 (G12V) GPPNHP
Please respond with yes when measured SPR Response Units is strictly beneath 30 Response Units, and with no in all other cases.

Example cases with answers are listed next.
COc1nc(-c2cccc3c2OCCO3)ccc1Nc1cccc(C(=O)NCC2CCN(C(C)=O)CC2)c1 : no
COc1cccc(-c2cccc3c2O[C@@H](CNC(=O)c2ccc(OCCN(C)C)cc2)CO3)n1 : no

(Q) Here's an entry: COc1cccc(-c2cccc3c2OC(CNC(=O)c2ccc(OCCN(C)C)cc2F)CO3)n1 (stereo not drawn) . Is its SPR Response Units below 30 Response Units?
(A) no

(Q) Hello, is SPR Response Units of the following compound strictly smaller than 30 Response Units? COc1cccc(-c2cccc3c2OCCO3)n1
(A) yes

(Q) Is the reported SPR Response Units for COc1cc(-c2cccc3c2OCCO3)ccc1Nc1cccc(CN(C)C)c1.O=CO strictly below 30 Response Units?
(A) no

(Q) Input COc1nc(-c2cccc3c2OC(CNC(=O)C2CCOCC2)CO3)ccc1Nc1cccnc1 (stereo not drawn) ; condition: SPR Response Units strictly below 30 Response Units. Does it hold?
(A) no

(Q) Strictly below 30 Response Units in SPR Response Units? COc1nc(-c2cccc3c2OCCO3)ccc1Nc1cccc(CNC(=O)c2cn[nH]c2)c1
(A) no

(Q) Consider the compound COc1cccc(-c2cccc3c2OC(CNCC2CCOCC2)CO3)n1 (stereo not drawn) . Is its SPR Response Units strictly less than 30 Response Units?
(A) yes

(Q) Hello, is SPR Response Units of the following compound strictly smaller than 30 Response Units? COc1cc(NC(=O)[C@@H]2CNCCO2)cc(-c2cccc3c2OCCO3)n1
(A) no

(Q) Record COc1cccc(-c2cccc3c2OC(CN2C(=O)NC4(CCN(C)CC4)C2=O)CO3)n1 (stereo not drawn) : is its SPR Response Units strictly below 30 Response Units?
(A) no

(Q) Is SPR Response Units of COc1nc(-c2cccc3c2OCCO3)ccc1Nc1cccc(C(=O)NCC2CCNCC2)c1 strictly below 30 Response Units?
(A) no

(Q) Quick check: SPR Response Units of CN(C)CCOc1ccc(C(=O)NCC2COc3cccc(-c4cc(N5CCOCC5)ccn4)c3O2)cc1 (stereo not drawn) under 30 Response Units?
(A) no

(Q) Criterion: SPR Response Units strictly below 30 Response Units. Is it met by COc1cccc(-c2cccc3c2OC(CNCc2cccnc2)CO3)n1 (stereo not drawn) ?
(A) yes

(Q) # check: SPR Response Units < 30 Response Units for COc1nc(-c2cccc3c2OCCO3)ccc1NC1CCN(C)C1 (stereo not drawn)
(A) yes

(Q) Consider the compound COc1nc(-c2cccc3c2OCCO3)ccc1Nc1ccccc1C(=O)NCC1CCN(C(=O)OC(C)(C)C)CC1 . Is its SPR Response Units strictly less than 30 Response Units?
(A) no

(Q) Just wondering, is SPR Response Units of COc1cccc(-c2cccc3c2OC(CNCC2CCN(C(=O)c4cnccn4)CC2)CO3)n1 (stereo not drawn) [Example 29a] below 30 Response Units?
(A) yes

(Q) Is SPR Response Units of COc1nc(-c2cccc3c2OCCO3)ccc1Nc1ccc(C(=O)NCC2CCNC(=O)C2)cc1 (stereo not drawn) strictly below 30 Response Units?
(A) no
